Below, each entry is listed with its recorded inhibition at 10 µM.
Molecular target: B1R receptor of the rat (Rattus norvegicus)
Construct: host or cells: CHO K1 cells (Chinese hamster ovary), stably transfected
Sequence (P97583 1-337): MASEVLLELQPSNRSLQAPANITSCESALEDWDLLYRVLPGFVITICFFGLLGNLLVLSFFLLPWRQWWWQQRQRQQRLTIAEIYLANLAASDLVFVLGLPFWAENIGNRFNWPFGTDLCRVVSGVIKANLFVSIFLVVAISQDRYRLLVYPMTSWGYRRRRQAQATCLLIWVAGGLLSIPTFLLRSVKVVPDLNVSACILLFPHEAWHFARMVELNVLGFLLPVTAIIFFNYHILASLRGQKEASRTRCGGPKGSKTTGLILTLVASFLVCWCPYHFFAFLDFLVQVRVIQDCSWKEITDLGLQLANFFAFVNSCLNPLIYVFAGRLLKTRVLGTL
Test: Functional study on the bradykinin receptor 1 (B1R), FLIPR Ca2+ assay, rB1R cells
Format: cell-based
Settings: CHO-K1, test substance 10 μM, agonist Des-Arg9-bradykinin 100 nM, % inhibition compared with the maximum achievable inhibition, read-out: B1R Antagonism, rat [10 μM] % Inhibition
Answer in %, number only, no unit symbol.

Inquiry: Hello, please tell me recorded inhibition at 10 µM for this one: O=C(COCC1CCCCN1S(=O)(=O)c1c(Cl)cc(Cl)cc1Cl)NCc1ccc(N2CCCCC2)cc1 (stereo not shown) [Example 74]
Reply text: 103

Inquiry: Answer with the recorded inhibition at 10 µM for the compound listed here: COc1cc(C)c(S(=O)(=O)N2CCCCC2COCC(=O)N(C)[C@H]2CCN(Cc3ccccc3)C2)c(C)c1 (stereo partly shown) [Example 364]
Reply text: 101

Inquiry: Kindly indicate its recorded inhibition at 10 µM. Item: COc1cc(C)c(S(=O)(=O)N2CCCCC2COCC(=O)Nc2ccc(Cn3ccnc3)cc2)c(C)c1 (stereo not shown) [Example 420]
Reply text: 92

Inquiry: Return the recorded inhibition at 10 µM value; entry: COc1ccc(-c2cc(NC(=O)COCC3CCCCN3S(=O)(=O)c3c(C)cc(OC)cc3C)n[nH]2)cc1 (stereo not shown) [Example 543]
Reply text: 105

Inquiry: Respond only with inhibition at 10 µM recorded for COc1cc(C)c(S(=O)(=O)N2CCCCC2COCC(=O)N2CCN(CCC#N)CC2)c(C)c1 (stereo not shown) [Example 410]
Reply text: 103

Inquiry: # return recorded inhibition at 10 µM for input COCCN1CCN(C(=O)COCC2CCCCN2S(=O)(=O)c2ccc(Cl)c(Cl)c2)CC1 (stereo not shown) [Example 46]
Reply text: 0

Inquiry: Quickly give me recorded inhibition at 10 µM for O=C(COCC1CCCN1S(=O)(=O)c1c(Cl)cc(Cl)cc1Cl)N(C1CC1)C1CCN(Cc2ccccc2)CC1 (stereo not shown) [Example 334]
Reply text: 101

The values you see were collected from patent US8435978B2.
